Reported logP values for a set of compounds

Item smiles: COc1cc(C=CC(=O)O)ccc1O
logP: 1.87
//
Item smiles: O=C(C=Cc1ccccc1)OCC=Cc1ccccc1
logP: 4.45
//
Item smiles: CCN(CC)CCOC(=O)/C=C/c1cc(OC)c(OC)c(OC)c1
logP: 2.84
//
Item smiles: COC(=O)/C=C/c1ccc(O)c(O)c1
logP: 2.22
//
Item smiles: CCN(CC)CCOC(=O)C=Cc1ccc(OC)c(OC)c1
logP: 2.88
//
Item smiles: COc1ccc(C=CC(=O)O)cc1OC
logP: 2.34
//
Item smiles: COc1ccc(/C=C/C(=O)O)cc1
logP: 2.68

====

Reported logP values for a set of compounds

Item smiles: CCN(CC)CCOC(=O)/C=C/c1ccc(F)cc1
logP: 3.52

Item smiles: O=C(O)/C=C/c1ccc(O)cc1
logP: 1.79

Item smiles: O=C(O)/C=C/c1ccc2c(c1)OCO2
logP: 2.59

Item smiles: CCOC(=O)/C=C/c1ccc(O)c(O)c1
logP: 2.56

Item smiles: CCN(CC)CCOC(=O)/C=C/c1ccccc1
logP: 3.61

Item smiles: O=C(O)C=CC=Cc1ccccc1
logP: 3.15

Source: the SangsterLogP compilation
